Source: ChEMBL document CHEMBL6153133

test: Tmax in male Dunkin Hartley guinea pig at 10 mg/kg, po by LC-MS/MS analysis; assay type: ADME, organism-based, Cavia porcellus; settings: in vivo

{"CHEMICAL STRUCTURE": "Cl.Cl.Oc1cc(NCCCCCN2CCOCC2)ccc1Oc1c(F)c(F)c(C(F)(F)F)c(F)c1F", "Tmax [h]": 1.8}

====

test: Cmax in male Dunkin Hartley guinea pig at 10 mg/kg, po by LC-MS/MS analysis; assay type: ADME, organism-based, Cavia porcellus; details: in vivo
PARAMETER: Cmax (ng/mL)

{"CHEMICAL STRUCTURE": "Cl.Cl.Oc1cc(NCCCCCN2CCOCC2)ccc1Oc1c(F)c(F)c(C(F)(F)F)c(F)c1F", "RECORDED VALUE": 31.8}

====

# reported clearance; entries follow
test: Clearance in male Sprague-Dawley rat at 10 mg/kg, iv by LC-MS/MS analysis; type: ADME, organism-based; conditions: in vivo
PARAMETER: clearance (mL/min/kg)

{"CHEMICAL STRUCTURE": "COc1cc(N)ccc1Oc1c(F)c(F)c(C(F)(F)F)c(F)c1F.Cl", "PARAMETER": "clearance", "RECORDED VALUE": 25}
{"CHEMICAL STRUCTURE": "Cl.Nc1ccc(Oc2c(F)c(F)c(C(F)(F)F)c(F)c2F)c(O)c1", "PARAMETER": "clearance", "RECORDED VALUE": 115}

====

experiment: Ratio of drug concentration in male Dunkin Hartley guinea pig lung to plasma at 10 mg/kg, po measured after 1 hrs by LC-MS/MS analysis; assay type: ADME, organism-based, Cavia porcellus

{"CHEMICAL STRUCTURE": "Cl.Cl.Oc1cc(NCCCCCN2CCOCC2)ccc1Oc1c(F)c(F)c(C(F)(F)F)c(F)c1F", "Kp at 1 h": 291}

====

Listed next: entries and their corresponding Activity.
system: Calcium-activated potassium channel subunit alpha-1 (Homo sapiens), Q12791 [UNDEFINED MUTATION]; assay: Activation of hyperactive human BKca channel G803D/N806K mutant transfected in human AD-293 cells assessed as maximum relative fluorescence value at 5 uM preincubated for 15 mins followed by Tl+ stimulus buffer addition and measured after 80 sec by Flexstation3 multimode microplate reader analysis relative to control; assay type: cell-based; settings: filed as opener, time 980.0 sec

{"CHEMICAL STRUCTURE": "Oc1ccc(Oc2c(F)c(F)c(Cl)c(F)c2F)c(O)c1", "Activity (%)": 100}
{"CHEMICAL STRUCTURE": "Oc1ccc(Oc2cc(Cl)cc(Cl)c2)c(O)c1", "Activity (%)": 61.5}
{"CHEMICAL STRUCTURE": "Nc1ccc(Oc2c(F)c(F)c(C(F)(F)F)c(F)c2F)c(O)c1", "Activity (%)": 100}
{"CHEMICAL STRUCTURE": "Nc1ccc(Oc2c(F)c(F)c(C(F)(F)F)c(F)c2F)cc1", "Activity (%)": 86.8}

====

assay: Half-life in male Sprague-Dawley rat at 10 mg/kg, iv by LC-MS/MS analysis; type: ADME, organism-based; conditions: in vivo
In this section, each of the compounds is paired with its reported half-life.

{"CHEMICAL STRUCTURE": "Cl.Nc1ccc(Oc2c(F)c(F)c(C(F)(F)F)c(F)c2F)c(O)c1", "VALUE UNITS": "h", "half-life": 4.5}
{"CHEMICAL STRUCTURE": "COc1cc(N)ccc1Oc1c(F)c(F)c(C(F)(F)F)c(F)c1F.Cl", "VALUE UNITS": "h", "half-life": 2.1}

====

test: AUClast in male Dunkin Hartley guinea pig at 10 mg/kg, po by LC-MS/MS analysis; assay type: ADME, organism-based, Cavia porcellus; settings: in vivo

{"CHEMICAL STRUCTURE": "Cl.Cl.Oc1cc(NCCCCCN2CCOCC2)ccc1Oc1c(F)c(F)c(C(F)(F)F)c(F)c1F", "VALUE UNITS": "ng·h/mL", "AUC(0-t)": 188}

====

target: Calcium-activated potassium channel subunit alpha-1 (Homo sapiens, UniProt Q12791, G803D/N806K); experiment: Activation of hyperactive human BKca channel G803D/N806K mutant transfected in human AD-293 cells incubated for 20 to 30 mins by Flexstation3 multimode microplate reader analysis; type: cell-based
Sequence (Q12791 whole entry, looked up, stated change not applied): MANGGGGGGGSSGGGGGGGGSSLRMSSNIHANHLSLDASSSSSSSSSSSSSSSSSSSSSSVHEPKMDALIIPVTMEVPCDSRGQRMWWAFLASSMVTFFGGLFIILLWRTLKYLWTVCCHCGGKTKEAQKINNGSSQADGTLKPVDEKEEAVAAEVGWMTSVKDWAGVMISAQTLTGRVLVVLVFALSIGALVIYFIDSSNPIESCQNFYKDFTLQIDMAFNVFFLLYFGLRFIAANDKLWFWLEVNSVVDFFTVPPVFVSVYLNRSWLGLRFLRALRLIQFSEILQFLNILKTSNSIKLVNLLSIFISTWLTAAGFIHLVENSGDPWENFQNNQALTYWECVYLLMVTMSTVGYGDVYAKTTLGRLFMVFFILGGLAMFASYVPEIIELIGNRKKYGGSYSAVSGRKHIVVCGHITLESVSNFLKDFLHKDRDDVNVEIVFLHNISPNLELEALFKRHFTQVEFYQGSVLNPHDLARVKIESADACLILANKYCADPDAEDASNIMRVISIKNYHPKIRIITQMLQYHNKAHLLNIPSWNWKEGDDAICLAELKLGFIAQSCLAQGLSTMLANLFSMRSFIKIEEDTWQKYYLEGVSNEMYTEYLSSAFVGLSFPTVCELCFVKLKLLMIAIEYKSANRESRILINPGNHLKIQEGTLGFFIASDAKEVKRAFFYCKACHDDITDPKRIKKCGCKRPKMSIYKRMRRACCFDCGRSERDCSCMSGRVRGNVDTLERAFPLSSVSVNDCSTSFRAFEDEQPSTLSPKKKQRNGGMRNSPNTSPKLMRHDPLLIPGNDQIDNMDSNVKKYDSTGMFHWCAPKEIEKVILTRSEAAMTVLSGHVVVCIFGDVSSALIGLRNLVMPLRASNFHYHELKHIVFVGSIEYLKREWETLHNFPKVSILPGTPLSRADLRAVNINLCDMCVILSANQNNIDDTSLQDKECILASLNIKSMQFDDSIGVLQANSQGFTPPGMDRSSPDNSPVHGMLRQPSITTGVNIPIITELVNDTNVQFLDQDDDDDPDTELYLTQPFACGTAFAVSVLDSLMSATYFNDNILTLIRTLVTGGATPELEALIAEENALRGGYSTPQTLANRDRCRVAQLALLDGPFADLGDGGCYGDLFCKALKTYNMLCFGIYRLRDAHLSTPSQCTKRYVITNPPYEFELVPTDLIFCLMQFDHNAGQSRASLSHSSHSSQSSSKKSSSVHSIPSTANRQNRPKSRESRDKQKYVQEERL
pEC50: −log10 of the molar value.
PARAMETER: pEC50

{"CHEMICAL STRUCTURE": "Oc1ccc(-c2onc(C(F)(F)F)c2-c2ccc(Cl)cc2)c(O)c1", "PARAMETER": "pEC50", "RECORDED VALUE": 5.41}

====

This listing pairs molecules with measured remaining at 1 h, 1 µM.
test: Metabolic stability in human liver microsomes assessed as parent compound remaining at 1 uM preincubated for 15 mins followed by UDPGA addition and measured after 60 mins by LC-MS/MS analysis; format: ADME, Microsome; conditions: time 75 min, read-out: Stability
PARAMETER: remaining at 1 h, 1 µM (%)

{"CHEMICAL STRUCTURE": "Nc1ccc(Oc2c(F)c(F)c(C(F)(F)F)c(F)c2F)c(O)c1", "RECORDED VALUE": 4.8}
{"CHEMICAL STRUCTURE": "COc1cc(N)ccc1Oc1c(F)c(F)c(C(F)(F)F)c(F)c1F", "RECORDED VALUE": 30}
{"CHEMICAL STRUCTURE": "CNc1ccc(Oc2c(F)c(F)c(C(F)(F)F)c(F)c2F)c(O)c1", "RECORDED VALUE": 1.6}

====

assay: AUClast in male Dunkin Hartley guinea pig at 10 mg/kg, iv by LC-MS/MS analysis; format: ADME, organism-based, Cavia porcellus; details: in vivo
PARAMETER: AUC(0-t) (ng·h/mL)

{"CHEMICAL STRUCTURE": "Cl.Cl.Oc1cc(NCCCCCN2CCOCC2)ccc1Oc1c(F)c(F)c(C(F)(F)F)c(F)c1F", "VALUE UNITS": "ng·h/mL", "RECORDED VALUE": 1800}

====

target: Calcium-activated potassium channel subunit alpha-1 (Homo sapiens, UniProt Q12791); experiment: Activation of human KCa1.1 by patch clamp method
pEC50: −log10 of the molar value.

{"CHEMICAL STRUCTURE": "FC(F)(F)c1cc(NC(=S)Nc2ccc(Br)cc2-c2nnn[nH]2)cc(C(F)(F)F)c1", "pEC50": 6.40}

====

Form field: remaining at 0.5 h, 1 µM (one value per entry).
assay: Metabolic stability in human liver microsomes assessed as parent compound remaining at 1 uM preincubated for 5 mins followed by NADPH addition and measured after 30 mins by LC-MS/MS analysis; type: ADME, Microsome; conditions: read-out: Stability

{"CHEMICAL STRUCTURE": "Nc1ccc(Oc2c(F)c(F)c(C(F)(F)F)c(F)c2F)c(O)c1", "remaining at 0.5 h, 1 µM (%)": 97}
{"CHEMICAL STRUCTURE": "Nc1ccc(Oc2c(F)c(F)c(C(F)(F)F)c(F)c2F)c(F)c1", "remaining at 0.5 h, 1 µM (%)": 14.8}
{"CHEMICAL STRUCTURE": "Oc1ccc(Oc2c(F)c(F)c(Cl)c(F)c2F)c(O)c1", "remaining at 0.5 h, 1 µM (%)": 83.6}

====

The entries below come with measured AUC(0-t) values attached.
assay: AUClast in male Sprague-Dawley rat at 10 mg/kg, po by LC-MS/MS analysis; format: ADME, organism-based; settings: in vivo

{"CHEMICAL STRUCTURE": "Cl.Cl.Oc1cc(NCCCCN2CCOCC2)ccc1Oc1c(F)c(F)c(C(F)(F)F)c(F)c1F", "AUC(0-t), ng·h/mL": 223}
{"CHEMICAL STRUCTURE": "COc1cc(N)ccc1Oc1c(F)c(F)c(C(F)(F)F)c(F)c1F.Cl", "AUC(0-t), ng·h/mL": 668}
{"CHEMICAL STRUCTURE": "Cl.Nc1ccc(Oc2c(F)c(F)c(C(F)(F)F)c(F)c2F)c(O)c1", "AUC(0-t), ng·h/mL": 344}
{"CHEMICAL STRUCTURE": "Cl.Cl.Oc1cc(NCCCCCN2CCOCC2)ccc1Oc1c(F)c(F)c(C(F)(F)F)c(F)c1F", "AUC(0-t), ng·h/mL": 844}

====

assay: Clearance in male Dunkin Hartley guinea pig at 10 mg/kg, iv by LC-MS/MS analysis; assay type: ADME, organism-based, Cavia porcellus; conditions: in vivo

{"CHEMICAL STRUCTURE": "Cl.Cl.Oc1cc(NCCCCCN2CCOCC2)ccc1Oc1c(F)c(F)c(C(F)(F)F)c(F)c1F", "VALUE UNITS": "mL/min/kg", "clearance": 93.3}

====

assay: Volume of distribution at steady state in male Dunkin Hartley guinea pig at 10 mg/kg, iv by LC-MS/MS analysis; assay type: ADME, organism-based, Cavia porcellus; settings: in vivo, read-out: Vdss
PARAMETER: Vd (L/kg)

{"CHEMICAL STRUCTURE": "Cl.Cl.Oc1cc(NCCCCCN2CCOCC2)ccc1Oc1c(F)c(F)c(C(F)(F)F)c(F)c1F", "RECORDED VALUE": 18.1}
